Answer each item with its documented log10 IC50.
- targetOfAssay: K103NNY181C mutant reverse transcriptase (Human immunodeficiency virus type 1 group M subtype B, UniProt P04585, K690N/Y768C)
- Construct: mutations that occur in the reverse transcriptase segment of the pol gene
- protocolNotes: Reverse transcriptase enzymatic assay (PicoGreen), K103N/Y181C mutant RT
- Format: biochemical, HIV-1
- settings: IC50 mut, K103N/Y181C mutant reverse transcriptase, enzymatic assay of Example 24
In plain terms, each number is the log10 of measured IC50 in nM.

Answer with reported log10 IC50 of CC(C)(O)C#Cc1ccc(NC(=O)CSc2nnnn2-c2cc(Cl)c(C3CC3)cc2Cl)c(Cl)c1 [Compound 4070]
1.92

Answer with reported log10 IC50 of CC(C)(C#Cc1ccc(NC(=O)CSc2nnnn2-c2ccc(C(C)(C)C)cc2Cl)c(Cl)c1)OCC(=O)Nc1cccc(C(=O)O)c1 [Compound 4025]
1.64

Answer with reported log10 IC50 of CC(C)(C#Cc1ccc(NC(=O)CSc2nnnn2-c2ccc(CC3CC3)cc2Cl)c(Cl)c1)C(=O)NCCCN1CCCC1=O [Compound 4244]
2.34

Answer with reported log10 IC50 of CC(C)(C#Cc1ccc(NC(=O)CSc2nnnn2-c2ccc(C3CC3)cc2Cl)c(Cl)c1)NCC(N)=O [Compound 4231]
1.20

Answer with reported log10 IC50 of CN(C)CC(=O)NC(C)(C)C#Cc1ccc(NC(=O)CSc2nnnn2-c2cc(C(F)(F)F)ccc2Cl)c(Cl)c1F [Compound 4171]
1.50

Answer with reported log10 IC50 of CC(C)(O)C#Cc1ccc(NC(=O)CSc2nnnn2-c2cc(F)cc(C(F)(F)F)c2Cl)c(Cl)c1 [Compound 4029]
2.33

Answer with reported log10 IC50 of CC(C)(C#Cc1ccc(NC(=O)CSc2nnnn2-c2ccc(C3CC3)cc2Cl)c(Cl)c1)NC(=O)CNCCCn1ccnc1 [Compound 4127]
1.31

* * *

- targetOfAssay: K103NNY181C mutant reverse transcriptase (Human immunodeficiency virus type 1 group M subtype B, UniProt P04585, K690N/Y768C)
- Construct: mutations that occur in the reverse transcriptase segment of the pol gene
- protocolNotes: Reverse transcriptase enzymatic assay (PicoGreen), K103N/Y181C mutant RT
- Assay type: biochemical, HIV-1
- settings: IC50 mut, mutant reverse transcriptase, enzymatic assay of Example 24
IC50 vs 100 nM: less than gives 1; not less than gives 0.

Dear reviewer, please state whether `O=C(O)Cc1ccc(-c2ccc(NC(=O)CSc3nnnn3-c3ccc(OC(F)(F)F)cc3Cl)c(Cl)c2)cc1` has IC50 strictly beneath 100 nM.
0

Dear reviewer, please state whether `CC(C)(C)c1ccc(-n2nnnc2SCC(=O)Nc2ccc(OCC(=O)NCCN3CCOCC3)cc2Cl)c(Cl)c1` has IC50 strictly beneath 100 nM.
0

Dear reviewer, please state whether `CC(C)(C)c1ccc(-n2nnnc2SCC(=O)Nc2ccc(C(=O)NCc3ccc(O)c(O)c3)cc2Cl)c(Cl)c1` has IC50 strictly beneath 100 nM.
1

Dear reviewer, please state whether `COC(=O)CN(C)CCOc1ccc(-c2ccc(NC(=O)CSc3nnnn3-c3ccc(C(C)(C)C)cc3Cl)c(Cl)c2)cc1` has IC50 strictly beneath 100 nM.
1

Dear reviewer, please state whether `O=C(CSc1nnnn1-c1ccc(C2CC2)cc1Cl)Nc1ccc(C(=O)NCCc2cc[n+]([O-])cc2)cc1Cl` has IC50 strictly beneath 100 nM.
1

Dear reviewer, please state whether `CC(C)(C)c1ccc(-n2nnnc2SCC(=O)Nc2ccc(C(=O)NCc3ccco3)cc2Cl)c(Cl)c1` has IC50 strictly beneath 100 nM.
1

Dear reviewer, please state whether `Cc1ccc(-n2nnnc2SCC(=O)Nc2ccc(-c3ccc(CC(=O)O)cc3)cc2[N+](=O)[O-])c(Cl)c1` has IC50 strictly beneath 100 nM.
1

Dear reviewer, please state whether `CC(C)(C)c1ccc(-n2nnnc2SCC(=O)Nc2ccc(C(=O)NCc3ccc(N)cc3)cc2Cl)c(Cl)c1` has IC50 strictly beneath 100 nM.
1

Dear reviewer, please state whether `Cc1cc(C(F)(F)F)cc(-n2nnnc2SCC(=O)Nc2ccc(-c3ccc(CC(=O)O)cc3)cc2Cl)c1Cl` has IC50 strictly beneath 100 nM.
1

Dear reviewer, please state whether `CC(C)(C)c1ccc(-n2nnnc2SCC(=O)Nc2ccc(S(=O)(=O)NCCc3ccccc3)cc2Cl)c(Cl)c1` has IC50 strictly beneath 100 nM.
0

Dear reviewer, please state whether `CC(C)(C)c1ccc(-n2nnnc2SCC(=O)Nc2ccc(C(=O)N3CCC(C(=O)O)CC3)cc2Cl)c(Cl)c1` has IC50 strictly beneath 100 nM.
0

Dear reviewer, please state whether `CNS(=O)(=O)c1ccc(NC(=O)CSc2nnnn2-c2ccc(C(C)(C)C)cc2Cl)c(Cl)c1` has IC50 strictly beneath 100 nM.
1

Dear reviewer, please state whether `O=C(COc1ccc(NC(=O)CSc2nnnn2-c2ccc(C3CC3)cc2Cl)c(Cl)c1)NCCc1ccncc1` has IC50 strictly beneath 100 nM.
0
